- protocolText: label from the status in PepcDB records
measuredEndpoint: protein production

1. DQHRPATLEALLAGVSLLLPMLDAIPNAAIFIKDSAARYALANNTLVQRCGLKRLQPLLGKTSAEVFPAQFGPGYTEQDRRVLKEGLVLEDQLELHLYGSREPGWCLTHKRPLYNPAGEIIGLVGISVDLQSAADSHP    failed
2. MRQVTVGGMRVDLVSEIASLAFDKSWLFANVTDAVIAENRSWLDHRYIEPATGRFILSHHSYLVRAPRWTAIVDTCCGNHKKRPRVPVWNDLNQPYLENMRALGVAPEEVDFVMCTHLHVDHVGWNTRLLDGRWVPTFPNARYLMGREEYRHFEAAHNAAPKSPVNHGSFEDSVLPVVAAGLAEFVETDHRLFEDRDAALRFAPAPGHTAGNMQIHLNGGHDHAVMSGDVIHHPIQCAAPWLSNAADVDPAAAVATRMALLEELADTPSYLLTGHFPAPTAGRVIRHGDTYRFRFED    failed

====

- protocolText: label from the status in PepcDB records
measuredEndpoint: protein production

1. MDRNEVRHAWDSVSETYAERRDPTGSDAALLEDLLERLPEAPTVLDVGCGDGARTLANLPPRSVGLDFSRAGLDLAAETVPDSRLVQGDMGSLPVTTDSVDAITAYHAVFHVQRDQHPEVYREFARVLRPGGTVLMTLPSGQFETVRRGWMGGSMFFSAPGRRATLDQLADAGFTETETVTATDPLGSDSEFVFATLADALEHHHHHH    not failed
2. MTDPSQMQAEELLSFLEEGGTLKMLHDVSADTIEHIYAVGYNFFQSGKIEQAAKVFQLLSMLDHYQARFFIGLGAARQELGEYLQAIDAYSYAALVDINDPRPPFHSAECHLKLEQLTEAESGFYSAKEMSAGKSQYADLHQRAGIMLEAVRNKRSNLEHHHHHH    not failed
3. MLPDDVNQADVLADVTAAFYRYEKALTGNDVAVLDELFWHDEKTVRYGAGENLYGIEEIRAFRLARPSAGLDRALRNTVITTYGHDMAVASTEFTRTGSTKIGRQMQTWVKMPEGWRIVAAHVSLMSE    not failed

====

- protocolText: label from the status in PepcDB records
measuredEndpoint: protein production

1. MKRFVLLDTTAIPENGGALCLFEYGEDFVIKIQGGDGGQLMNTRMHGSEDALAQIPCSKVAGRPNSRVLIGGLGMGFTLAAALKHLGKSAKVVVAELVPGVVEWNRGPLGEKSGRPLLDPRTVIRLEDVAKVLQAEPQGFDAIMLDVDNGPEGLTQKANSWLYSSAGLAACARALRPKGILAVWSASADRQFSERLRKAGFKAEEVQVFAHGNRGTRHTIWIAEKLKA    failed
2. MAESGVSVGSESLQLYEAQFFGFTPETCTLRVRDAFRDSLNHILVAVESVFVKRLCPGRDPPAELRLTARESTQKLRQFLQERFEIMFQRMKGMLIDRMLSIPQNVLLPEDQMHQKYPEGKEELTKLQESIAKLLQAYEAEVCSKQALLAELEEQKETQKQLDEVLRWIEELRVSWRREGMGNVQDSVRHMIETVGQLQDVVGKINKQNSALDEV    failed
3. MNLNQLDIIVSNVPQVCADLEHILDKKADYANDGFAQFTIGSHCLMLSQNHLVPLENFQSGIIIHIEVEDVDQNYKRLNELGIKVLHGPTVTDWGTESLLVQGPAGLVLDFYRMK    not failed
4. MTTYTSIANVIKERRSVRTFTDKAVEKDLLIELLNDATWAPNHKHREPWNCKLYIGEGRKKLVDAVLNSFTEEERAKRGKILSDRFLSTPAQIVVYMNEDPRQIQRDEDYAATCAFMQNFQLLAWERGLGCVWKSGGLNYNPLFIEGIGLTRGQRIVGILHIGYFDKAPEGKARTPITEKMEIIEG    not failed
5. MIVIPMAGMSSRFFKAGYTQPKYMLEAHGQTLFEHSVNSFAAYFASTPFLFIVRNVYDTAVFVREKATQLGIKQFYIAELHTETRGQAETVTLGLEELAKQGVDYQGSITVFNIDTFRPNFVFPDISQHSDGYLEVFQGGGDNWSFAKPEHAGSTKVIQTAEKNPISDLCSTGLYHFNRKEDYLEAYREYVARPSQEWERGELYIAPLYNLLIQKGLNIHYHLIARHEVIFCGVPDEYTDFLRQPQPLEHHHHHH    not failed
6. MGTGEKTLKSFQLHRKQSVKVKDVPKGCLAIKVGSQGEEQQRFIVPVLYFNHPLFMQLLKEAEDEYGFDQKGTITIPCHVEEFRYVQALIDGERSVYNGNNHHHRHGGRDQYHHLVGCFRA    failed
7. MSAEVETSEGVDESEKKNSGALEKENQMRMADLSELLKEGTKEAHDRAENTQFVKDFLKGNIKKELFKLATTALYFTYSALEEEMERNKDHPAFAPLYFPMELHRKEALTKDMEYFFGENWEEQVQCPKAAQKYVERIHYIGQNEPELLVAHAYTRYMGDLSGGQVLKKVAQRALKLPSTGEGTQFYLFENVDNAQQFKQLYRARMNALDLNMKTKERIVEEANKAFEYNMQIFNELDQAGSTLARETLEDGFPVHDGKGDMRKCPFYAAEQDKGALEGSSCPFRTAM    not failed
